Quick reference: ½ Lives for P—N Bond Hydrolysis, pH 4.5 of the listed items.
# Assay Explanation: pH stability: half-lives for P—N bond hydrolysis of model linkers
# Type: physicochemical
# Condition Set: pH 4.5
Record the value in hr, omitting the unit from your answer.

[[record]]
molecule = "O=P(O)(NCCc1ccccc1)OCCCc1cccnc1"
endpoint_result = 19.3

[[record]]
molecule = "Cc1ccc(C(=O)NC(CCOP(=O)(O)N(C)CCc2ccccc2)C(=O)O)cc1 (centres unmarked)"
endpoint_result = 0.96

[[record]]
molecule = "CN(c1ccccc1)P(=O)(O)OCCc1cccnc1"
endpoint_result = 3.85

[[record]]
molecule = "O=P(O)(NCCc1ccccc1)OCCCc1ccccn1"
endpoint_result = 9.63

[[record]]
molecule = "Cc1ccc(C(=O)NC(COP(=O)(O)Nc2ccccc2)C(=O)O)cc1 (centres unmarked)"
endpoint_result = 3.21


Read the next record carefully.
Form field: reported ½ Lives for P—N Bond Hydrolysis, pH 4.5 of CN(CCc1ccccc1)P(=O)(O)OCCc1cccnc1
1.93

---

# Assay Explanation: pH stability: half-lives for P—N bond hydrolysis of model linkers
# Assay type: physicochemical
# Condition Set: pH 5.5
Readout Label: ½ Lives for P—N Bond Hydrolysis, pH 5.5 (days)
Record the value in days, omitting the unit from your answer.

[[record]]
molecular_string = "O=P(O)(NCCc1ccccc1)OCCc1cccnc1"
endpoint_result = 1.6


Read the next record carefully.
Form field: reported ½ Lives for P—N Bond Hydrolysis, pH 5.5 of O=P(O)(Nc1ccccc1)OCCCc1ccccn1
2.0

---

# Assay Explanation: pH stability: half-lives for P—N bond hydrolysis of model linkers
# Assay type: physicochemical
# Condition Set: pH 3
Readout Label: ½ Lives for P—N Bond Hydrolysis, pH 3 (hr)
Record the value in hr, omitting the unit from your answer.

Examples with answers:
[[record]]
compound = "CN(c1ccccc1)P(=O)(O)OCCCc1cccnc1 [Entry H11]"
uom = "hr"
endpoint_result = 0.48

[[record]]
compound = "O=P(O)(NCCc1ccccc1)OCCc1cccnc1 [Entry H97]"
uom = "hr"
endpoint_result = 2.8

[[record]]
compound = "CN(CCc1ccccc1)P(=O)(O)OCCc1cccnc1 [Entry H99]"
uom = "hr"
endpoint_result = 0.39

[[record]]
compound = "CN(c1ccccc1)P(=O)(O)OCCc1cccnc1 [Entry H105]"
uom = "hr"
endpoint_result = 0.64

[[record]]
compound = "CN(CCc1ccccc1)P(=O)(O)OCCCc1ccccn1 [Entry H43]"
uom = "hr"
endpoint_result = 0.21

[[record]]
compound = "O=P(O)(NCCc1ccccc1)OCCCc1ccccn1 [Entry H41]"
uom = "hr"
endpoint_result = 2.1


Read the next record carefully.
Form field: reported ½ Lives for P—N Bond Hydrolysis, pH 3 of O=P(O)(NCCc1ccccc1)OCCCc1cccnc1 [Entry H5]
1.9

---

# Assay Explanation: pH stability: half-lives for P—N bond hydrolysis of model linkers
# Format: physicochemical
# Condition Set: pH 7.4
Readout Label: ½ Lives for P—N Bond Hydrolysis, pH 7.4

Examples with answers:
[[record]]
compound = "Cc1ccc(C(=O)NC(COP(=O)(O)N(C)CCc2ccccc2)C(=O)O)cc1 (stereo not shown)"
endpoint_result = "1.93 hr"

[[record]]
compound = "CN(c1ccccc1)P(=O)(O)OCCc1cccnc1"
endpoint_result = "10 days"

[[record]]
compound = "O=P(O)(NCCc1ccccc1)OCCCc1cccnc1"
endpoint_result = "90 day days"

[[record]]
compound = "O=P(O)(Nc1ccccc1)OCCCc1ccccn1"
endpoint_result = "4 day days"

[[record]]
compound = "O=P(O)(Nc1ccccc1)OCCc1cccnc1"
endpoint_result = "16 days"

[[record]]
compound = "O=P(O)(Nc1ccccc1)OCCc1ccccn1"
endpoint_result = "9.6 hr"

[[record]]
compound = "CN(c1ccccc1)P(=O)(O)OCCCc1ccccn1"
endpoint_result = "1.3 days"

[[record]]
compound = "CN(c1ccccc1)P(=O)(O)OCCCc1cccnc1"
endpoint_result = "10 day days"


Form field: reported ½ Lives for P—N Bond Hydrolysis, pH 7.4 of Cc1ccc(C(=O)NC(COP(=O)(O)NCCc2ccccc2)C(=O)O)cc1 (stereo not shown)
19.3 hr

Form field: reported ½ Lives for P—N Bond Hydrolysis, pH 7.4 of CN(CCc1ccccc1)P(=O)(O)OCCCc1ccccn1
21.4 hr
